This collection of values is drawn from ChEMBL document CHEMBL4513146.

test system: Cryptococcus neoformans; conditions: Concentration 32 ug.mL-1; ASSAY_TEST Inhibition of Fungal Growth; detection method Resazurin; Absorption (OD600-OD570); plate type 384well; NBS; CORNING #3640
Description: Antifungal activity against Cryptococcus neoformans H99 ATCC 208821 (CO-ADD:FG_002); MIC in YNB media using NBS plates, by Resazurin OD(600-570)
Entries with a potency or affinity are not part of this list.
Use -20% as the dividing line for Inhibition, with the line itself on the y side and lower values as n.

See these solved cases before continuing.
Could you tell me if the measured Inhibition of COc1cccc(-n2ccn3c(SCC(=O)c4ccc(OC)c(OC)c4)nnc3c2=O)c1 reaches -20% or more?
y

State whether the measured Inhibition reaches -20%, counting equality as reaching it, for CCOc1ccc(NC(=O)Cn2nc3c(Sc4ccccc4)nccn3c2=O)cc1
n

Check this compound for Inhibition at or above -20%: COc1ccc(NC(=O)Cn2nc3c(N4CCOCC4)nccn3c2=O)c(OC)c1
y

Could you tell me if the measured Inhibition of CC(C)CCn1c(=O)c2sccc2n2c(=O)n(CCOc3ccccc3)nc12 reaches -20% or more?
y

---
Would you say COc1cccc(NC(=O)Cn2nc3ccc(SCc4ccc(Cl)cc4)nn3c2=O)c1 shows Inhibition at minimum -20%?
y

Hi team, for CCc1nnc2c(SCC(=O)Nc3ccc(C)cc3Br)nc3ccccc3n12 , is the recorded Inhibition at or above -20%?
y

Reported Inhibition at or above -20%? O=C(Cn1nc2c3cc(-c4ccccc4)nn3ccn2c1=O)N1CCCc2ccccc21
n

hey, is Inhibition for this one >= -20%? COc1cccc(-n2ccn3c(SCC(=O)Nc4cccc(F)c4)nnc3c2=O)c1
y

Determine whether measured Inhibition meets or exceeds -20% for CCc1ccc(NC(=O)Cn2nc3n(Cc4ccco4)c(=O)c4sccc4n3c2=O)cc1
y

Quick check, Inhibition >= -20%? COc1ccc(N(Cc2cc(F)cc(F)c2)S(=O)(=O)c2ccc3nnc(C)n3c2)cc1
y

----------
system: Cryptococcus neoformans; settings: Concentration 32 ug.mL-1; ASSAY_TEST Inhibition of Fungal Growth; detection method Resazurin; Absorption (OD600-OD570); plate type 384well; NBS; CORNING #3640
Results with a measured potency or affinity are listed apart.
endpoint: Inhibition (%)
Entry rule: numbers only, all in %.

Here are 5 compounds together with their reported answers.
So what does the record say about Inhibition for Cc1c(Cl)cccc1NC(=O)CSc1nc2ccccc2n2c(C)nnc12 ?
-27.73

Which Inhibition reading was recorded for the compound O=C(CSc1nnc2c(=O)n(-c3ccc(F)cc3)ccn12)NCC1CCCO1 (stereo not given) ?
-18.42

Query: Inhibition; subject: Cc1ccc(-c2cc3c4nnc(SCC(=O)Nc5ccc(C#N)cc5)n4ccn3n2)cc1
-27.44

Fill blank: measured Inhibition of the compound Cc1ccc(NC(=O)CSc2nc3ccccc3n3c(C)nnc23)c(Br)c1 is ____.
-9.59

For COc1ccc(C)cc1NC(=O)Cn1nc2cc(C)nc(Nc3ccc(F)cc3)n2c1=O , what is its reported Inhibition?
-7.79

Others:
Name the reported Inhibition value associated with the compound C=Cc1ccc(CSc2nnc3c(=O)n(-c4cccc(OC)c4)ccn23)cc1
-2.41

Report Inhibition for COc1ccc(NC(=O)C(C)Sc2nnc3c(=O)n(-c4ccc(C)c(C)c4)ccn23)cc1 (stereo not given) please.
-9

Need Inhibition of Cc1cccc(N(Cc2cccc(F)c2)S(=O)(=O)c2cccn3c(C)nnc23)c1 , thanks.
-8.56

Field request: Inhibition | item: Cc1cc(C)cc(N(Cc2cc(C)ccc2C)S(=O)(=O)c2cccn3c(C)nnc23)c1
-8.76

# Inhibition lookup, item CCc1nnc2c(S(=O)(=O)N(Cc3cccc(C)c3)c3ccc(C(C)C)cc3)cccn12
-9.13
